Data origin: ChEMBL document CHEMBL4342411

Biological target: 5-hydroxytryptamine receptor 6 (Homo sapiens)
Assay: Displacement of [3H]-LSD from human recombinant 5-HT6 receptor expressed in CHO cells at 10^-6 M incubated for 60 mins by microbeta2 scintillation counter relative to control
Format: cell-based
assay.endpoint: inhibition (%)

Worked examples follow.
molecule: COc1ccc(/C=C2\NC(=O)N(CCCCN3CCN(c4ccccc4OC)CC3)C2=O)cc1OC1CCCC1
assay.endpoint: inhibition
observed.result: 5
//
molecule: COc1ccc(/C=C2\NC(=O)N(CCCCN3CCN(c4cccc(Cl)c4Cl)CC3)C2=O)cc1OC1CCCC1
assay.endpoint: inhibition
observed.result: 34
//
molecule: COc1ccc(/C=C2\NC(=O)N(CCCN3CCN(c4ncccn4)CC3)C2=O)cc1OC
assay.endpoint: inhibition
observed.result: 15
//
molecule: CSc1ccc2c(c1)C(N1CCN(C)CC1)Cc1ccccc1S2 (stereo not drawn)
assay.endpoint: inhibition
observed.result: 99
//
molecule: COc1ccc(/C=C2\NC(=O)N(CCCN3CCN(c4cccc(Cl)c4Cl)CC3)C2=O)cc1OC
assay.endpoint: inhibition
observed.result: 72
//
molecule: COc1ccc(/C=C2\NC(=O)N(CCCN3CCN(c4ccccc4OC)CC3)C2=O)cc1OC
assay.endpoint: inhibition
observed.result: 0

[1] COc1ccc(/C=C2\NC(=O)N(CCCCN3CCN(c4ncccn4)CC3)C2=O)cc1OC
[2] COc1ccc(/C=C2\NC(=O)N(CCCCN3CCN(c4ccccc4OC)CC3)C2=O)cc1OC
Sorting ascending by inhibition, which comes first: 1 or 2 ? Answer by quoting the chosen item's label.
1
(1: 0%, 2: 9%)

[A] COc1ccc(/C=C2\NC(=O)N(CCCN3CCN(c4ncccn4)CC3)C2=O)cc1OC1CCCC1
[B] COc1ccc(/C=C2\NC(=O)N(CCCCN3CCN(c4cccc(Cl)c4Cl)CC3)C2=O)cc1OC
Param metric = inhibition; output whichever of A , B has the minimum value. Write down the label attached to your selection.
A

====

Target: 5-hydroxytryptamine receptor 2A (Homo sapiens) (UniProt P28223)
Sequence (P28223 whole entry): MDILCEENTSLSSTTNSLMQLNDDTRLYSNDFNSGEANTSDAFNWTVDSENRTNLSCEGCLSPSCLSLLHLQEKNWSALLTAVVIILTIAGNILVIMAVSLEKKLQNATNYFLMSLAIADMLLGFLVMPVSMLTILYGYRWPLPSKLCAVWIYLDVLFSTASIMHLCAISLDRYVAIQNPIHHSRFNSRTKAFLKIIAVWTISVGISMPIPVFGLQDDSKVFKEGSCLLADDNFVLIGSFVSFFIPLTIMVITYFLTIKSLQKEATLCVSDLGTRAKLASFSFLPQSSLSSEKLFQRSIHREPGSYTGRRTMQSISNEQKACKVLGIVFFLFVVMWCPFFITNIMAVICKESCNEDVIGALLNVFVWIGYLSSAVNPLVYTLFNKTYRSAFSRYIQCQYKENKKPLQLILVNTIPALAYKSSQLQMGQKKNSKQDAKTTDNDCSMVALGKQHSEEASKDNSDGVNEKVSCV
Settings: HEK293, at 0.1 µM
assay.endpoint: inhibition (%)

[I] COc1ccc(/C=C2\NC(=O)N(CCCCN3CCN(c4cccc(Cl)c4Cl)CC3)C2=O)cc1OC1CCCC1
[II] COc1ccc(/C=C2\NC(=O)N(CCCN3CCN(c4ccccc4OC)CC3)C2=O)cc1OC
[III] COc1ccc(/C=C2\NC(=O)N(CCCCN3CCN(c4ncccn4)CC3)C2=O)cc1OC
Hi! Can you put these in order of inhibition, lowest number first? Submit the labels in the order that the ranking request calls for.
III, II, I
(III: 0%, II: 25%, I: 39%)

[A] COc1ccc(/C=C2\NC(=O)N(CCCCN3CCN(c4ccccc4OC)CC3)C2=O)cc1OC1CCCC1
[B] COc1ccc(/C=C2\NC(=O)N(CCCN3CCN(c4ncccn4)CC3)C2=O)cc1OC1CCCC1
Choose between A and B : whose measured inhibition value is numerically larger? Give the chosen item's label as your response.
A
(A: 50%, B: 33%)

====

Target: 5-hydroxytryptamine receptor 2A (Homo sapiens)
Conditions: HEK293, at 1 µM
assay.endpoint: inhibition (%)

smiles.code: COc1ccc(/C=C2\NC(=O)N(CCCN3CCN(c4ccccc4OC)CC3)C2=O)cc1OC
unit.abbreviation: %
inhibition: 83
--
smiles.code: COc1ccc(/C=C2\NC(=O)N(CCCN3CCN(c4cccc(Cl)c4Cl)CC3)C2=O)cc1OC1CCCC1
unit.abbreviation: %
inhibition: 96
--
smiles.code: COc1ccc(/C=C2\NC(=O)N(CCCN3CCN(c4cccc(Cl)c4Cl)CC3)C2=O)cc1OC
unit.abbreviation: %
inhibition: 97
--
smiles.code: COc1ccc(/C=C2\NC(=O)N(CCCCN3CCN(c4ccccc4OC)CC3)C2=O)cc1OC
unit.abbreviation: %
inhibition: 87
--
smiles.code: COc1ccc(/C=C2\NC(=O)N(CCCN3CCN(c4ncccn4)CC3)C2=O)cc1OC
unit.abbreviation: %
inhibition: 78

====

Biological target: 5-hydroxytryptamine receptor 2A (Homo sapiens) (UniProt P28223)
Settings: HEK293, at 1 µM
assay.endpoint: inhibition (%)

smiles.code: COc1ccc(/C=C2\NC(=O)N(CCCCN3CCN(c4ncccn4)CC3)C2=O)cc1OC1CCCC1
tested.system: 5-hydroxytryptamine receptor 2A (Homo sapiens) (UniProt P28223)
inhibition (%): 78

smiles.code: COc1ccc(/C=C2\NC(=O)N(CCCCN3CCN(c4cccc(Cl)c4Cl)CC3)C2=O)cc1OC1CCCC1
tested.system: 5-hydroxytryptamine receptor 2A (Homo sapiens) (UniProt P28223)
inhibition (%): 90

smiles.code: COc1ccc(/C=C2\NC(=O)N(CCCCN3CCN(c4ccccc4OC)CC3)C2=O)cc1OC1CCCC1
tested.system: 5-hydroxytryptamine receptor 2A (Homo sapiens) (UniProt P28223)
inhibition (%): 95

smiles.code: COc1ccc(/C=C2\NC(=O)N(CCCN3CCN(c4ncccn4)CC3)C2=O)cc1OC1CCCC1
tested.system: 5-hydroxytryptamine receptor 2A (Homo sapiens) (UniProt P28223)
inhibition (%): 89

smiles.code: COc1ccc(/C=C2\NC(=O)N(CCCN3CCN(c4ccccc4OC)CC3)C2=O)cc1OC1CCCC1
tested.system: 5-hydroxytryptamine receptor 2A (Homo sapiens) (UniProt P28223)
inhibition (%): 96

[1] COc1ccc(/C=C2\NC(=O)N(CCCCN3CCN(c4cccc(Cl)c4Cl)CC3)C2=O)cc1OC
[2] COc1ccc(/C=C2\NC(=O)N(CCCCN3CCN(c4ncccn4)CC3)C2=O)cc1OC
Which of these two has the smaller recorded inhibition: 1 or 2 ? Lab log: write the label of the selected item as the result.
2
(2: 41%, 1: 98%)

====

Molecular target: 5-hydroxytryptamine receptor 2A (Homo sapiens) (UniProt P28223)
Conditions: HEK293, at 0.1 µM
assay.endpoint: inhibition (%)

Solved entries (count: 2):
smiles.code: COc1ccc(/C=C2\NC(=O)N(CCCN3CCN(c4ncccn4)CC3)C2=O)cc1OC
tested.system: 5-hydroxytryptamine receptor 2A (Homo sapiens) (UniProt P28223)
unit.abbreviation: %
observed.result: 23

smiles.code: COc1ccc(/C=C2\NC(=O)N(CCCCN3CCN(c4cccc(Cl)c4Cl)CC3)C2=O)cc1OC
tested.system: 5-hydroxytryptamine receptor 2A (Homo sapiens) (UniProt P28223)
unit.abbreviation: %
observed.result: 82

[1] COc1ccc(/C=C2\NC(=O)N(CCCN3CCN(c4cccc(Cl)c4Cl)CC3)C2=O)cc1OC
[2] COc1ccc(/C=C2\NC(=O)N(CCCCN3CCN(c4ccccc4OC)CC3)C2=O)cc1OC
[3] COc1ccc(/C=C2\NC(=O)N(CCCCN3CCN(c4ncccn4)CC3)C2=O)cc1OC1CCCC1
Reorder: inhibition, max to min. List the labels according to the requested ordering.
1, 2, 3

====

Target: 5-hydroxytryptamine receptor 7 (Homo sapiens, UniProt P34969)
Sequence (P34969 whole entry): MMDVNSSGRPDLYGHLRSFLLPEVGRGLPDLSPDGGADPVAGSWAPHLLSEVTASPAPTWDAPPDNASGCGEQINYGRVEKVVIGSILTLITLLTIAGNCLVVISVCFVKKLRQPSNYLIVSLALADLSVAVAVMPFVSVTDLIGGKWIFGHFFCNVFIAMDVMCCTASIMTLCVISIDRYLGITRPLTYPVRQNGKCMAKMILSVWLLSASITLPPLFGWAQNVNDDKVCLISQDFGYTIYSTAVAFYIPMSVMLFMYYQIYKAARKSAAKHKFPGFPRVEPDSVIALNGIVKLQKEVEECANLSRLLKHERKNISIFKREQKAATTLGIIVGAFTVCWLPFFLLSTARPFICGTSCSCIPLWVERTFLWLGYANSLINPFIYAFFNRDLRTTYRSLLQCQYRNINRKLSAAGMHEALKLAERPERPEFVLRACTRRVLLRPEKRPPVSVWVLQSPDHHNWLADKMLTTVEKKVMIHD
Assay: Antagonist activity at human recombinant 5-HT7 receptor expressed in CHOK1 cells measured after 60 mins in the presence of serotonin by LANCE TR-FRET assay
Type: cell-based
assay.endpoint: IC50 (µM)

smiles.code: COc1ccc(/C=C2\NC(=O)N(CCCCN3CCN(c4cccc(Cl)c4Cl)CC3)C2=O)cc1OC
tested.system: 5-hydroxytryptamine receptor 7 (Homo sapiens, UniProt P34969)
IC50 / µM: 0.163
//
smiles.code: COc1ccc(/C=C2\NC(=O)N(CCCCN3CCN(c4ccccc4OC)CC3)C2=O)cc1OC1CCCC1
tested.system: 5-hydroxytryptamine receptor 7 (Homo sapiens, UniProt P34969)
IC50 / µM: 0.219

====

Target: 5-hydroxytryptamine receptor 1A (Homo sapiens)
Sequence (P08908 whole entry): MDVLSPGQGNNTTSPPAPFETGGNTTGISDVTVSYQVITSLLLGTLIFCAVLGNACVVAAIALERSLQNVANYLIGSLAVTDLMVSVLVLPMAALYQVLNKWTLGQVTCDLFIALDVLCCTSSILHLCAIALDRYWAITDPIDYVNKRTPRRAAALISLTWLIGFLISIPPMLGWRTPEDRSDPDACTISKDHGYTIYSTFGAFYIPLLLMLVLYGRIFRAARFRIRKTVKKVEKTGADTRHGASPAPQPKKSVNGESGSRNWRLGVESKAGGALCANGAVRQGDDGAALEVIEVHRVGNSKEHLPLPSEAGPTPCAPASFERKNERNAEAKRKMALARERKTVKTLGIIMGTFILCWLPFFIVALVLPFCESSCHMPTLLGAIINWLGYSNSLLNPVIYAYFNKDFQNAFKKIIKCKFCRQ
Assay: Antagonist activity at human recombinant 5-HT1A receptor expressed in CHOK1 cells incubated for 25 mins followed by addition of methiothepin by microbeta2 scintillation counter
Assay type: cell-based
Conditions: in the assay text read “serotonin” for “methiothepin”; read-out: IC50
assay.endpoint: IC50 (nM)

smiles.code: COc1ccc(/C=C2\NC(=O)N(CCCCN3CCN(c4cccc(Cl)c4Cl)CC3)C2=O)cc1OC
IC50, nM: 39
//
smiles.code: COc1ccc(/C=C2\NC(=O)N(CCCCN3CCN(c4ccccc4OC)CC3)C2=O)cc1OC1CCCC1
IC50, nM: 54

====

Target: 5-hydroxytryptamine receptor 6 (Homo sapiens) (UniProt P50406)
Sequence (P50406 whole entry): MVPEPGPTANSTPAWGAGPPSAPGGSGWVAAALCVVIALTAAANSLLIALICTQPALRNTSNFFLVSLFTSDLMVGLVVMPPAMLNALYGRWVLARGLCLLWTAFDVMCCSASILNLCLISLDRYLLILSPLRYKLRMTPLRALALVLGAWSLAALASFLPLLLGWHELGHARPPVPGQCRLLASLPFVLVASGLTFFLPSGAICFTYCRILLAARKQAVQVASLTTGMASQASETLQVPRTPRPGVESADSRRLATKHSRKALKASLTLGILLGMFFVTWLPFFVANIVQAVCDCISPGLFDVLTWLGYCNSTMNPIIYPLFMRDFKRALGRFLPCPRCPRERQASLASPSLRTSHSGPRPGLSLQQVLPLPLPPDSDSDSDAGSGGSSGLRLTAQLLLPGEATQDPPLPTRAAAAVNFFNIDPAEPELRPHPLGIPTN
Experiment: Displacement of [3H]-LSD from human recombinant 5-HT6 receptor expressed in CHO cells at 10^-7 M incubated for 60 mins by microbeta2 scintillation counter relative to control
Type: cell-based
assay.endpoint: inhibition (%)

compound: COc1ccc(/C=C2\NC(=O)N(CCCN3CCN(c4ccccc4OC)CC3)C2=O)cc1OC
tested.system: 5-hydroxytryptamine receptor 6 (Homo sapiens) (UniProt P50406)
observed.result: 0
--
compound: COc1ccc(/C=C2\NC(=O)N(CCCCN3CCN(c4ncccn4)CC3)C2=O)cc1OC1CCCC1
tested.system: 5-hydroxytryptamine receptor 6 (Homo sapiens) (UniProt P50406)
observed.result: 0
--
compound: COc1ccc(/C=C2\NC(=O)N(CCCCN3CCN(c4cccc(Cl)c4Cl)CC3)C2=O)cc1OC
tested.system: 5-hydroxytryptamine receptor 6 (Homo sapiens) (UniProt P50406)
observed.result: 6
--
compound: COc1ccc(/C=C2\NC(=O)N(CCCN3CCN(c4ccccc4OC)CC3)C2=O)cc1OC1CCCC1
tested.system: 5-hydroxytryptamine receptor 6 (Homo sapiens) (UniProt P50406)
observed.result: 0
--
compound: COc1ccc(/C=C2\NC(=O)N(CCCCN3CCN(c4cccc(Cl)c4Cl)CC3)C2=O)cc1OC1CCCC1
tested.system: 5-hydroxytryptamine receptor 6 (Homo sapiens) (UniProt P50406)
observed.result: 8

[1] COc1ccc(/C=C2\NC(=O)N(CCCN3CCN(c4ncccn4)CC3)C2=O)cc1OC
[2] CSc1ccc2c(c1)C(N1CCN(C)CC1)Cc1ccccc1S2 (stereo not drawn)
[3] COc1ccc(/C=C2\NC(=O)N(CCCN3CCN(c4cccc(Cl)c4Cl)CC3)C2=O)cc1OC
Order the records so the highest inhibition appears first and the lowest last. Form entry: ranked labels (order as requested).
2, 1, 3
